Biological target: p75^NTR TMD (Homo sapiens)
Sequence (P08138 250-275 limits assumed): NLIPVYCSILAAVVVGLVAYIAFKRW
Assay: AraTM assay, wild-type p75NTR TMD (GFP/OD630)
Conditions: dose-response
Measurement Kind: pIC50
One number for each entry, as −log10 of the molar value.

Measured pIC50, Oc1ccc(-c2cncc(Nc3ccc(Br)c(Cl)c3)n2)cc1 : 4.92

---

Target: p75^NTR TMD (Homo sapiens, UniProt P08138)
Sequence (P08138 250-275 limits assumed): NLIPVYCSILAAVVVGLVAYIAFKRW
Assay: AraTM assay, wild-type p75NTR TMD (GFP/OD630)
Type: cell-based
Conditions: structure-activity comparison
Measurement Kind: activity in the AraTM assay

O=C(Nc1ccc([N+](=O)[O-])cc1)c1cncc(-c2cccc(OC3CCCC3)c2)n1; activity was lost
O=C(Nc1ccc([N+](=O)[O-])cc1)c1cncc(-c2ccc3ccccc3c2)n1; activity was lost

---

Assay: Plasma pharmacokinetics in mice
Type: in vivo, C57BL/6 mice
Details: C57BL/6, mouse; PO 10 mg/kg; female; plasma
Measurement Kind: bioavailability (%)
Give bare numbers, in %.

Measured bioavailability, Cc1cccc(-c2cncc(Nc3ccc(Br)c(Cl)c3Cl)n2)c1C : 48

---

Experiment: Plasma pharmacokinetics in mice
Assay type: in vivo, C57BL/6 mice
Details: C57BL/6, mouse; IV 3 mg/kg; female; plasma; read-out: CL
Measurement Kind: clearance (mL/min/kg)
One number for each entry, in mL/min/kg.

Measured clearance, Cc1cccc(-c2cncc(Nc3ccc(Br)c(Cl)c3Cl)n2)c1C : 29.5

---

Assay: Plasma pharmacokinetics in mice
Type: in vivo, C57BL/6 mice
Settings: C57BL/6, mouse; IV 3 mg/kg; male; plasma
Measurement Kind: AUC(0-t) (µg·h/mL)
One number for each entry, in µg·h/mL.

Measured AUC(0-t), Cc1cccc(-c2cncc(Nc3ccc(Br)c(Cl)c3Cl)n2)c1C : 2.07

---

Assay: Plasma pharmacokinetics in mice
Assay type: in vivo, C57BL/6 mice
Settings: C57BL/6, mouse; PO 10 mg/kg; female; plasma; read-out: C0/Cmax
Measurement Kind: Cmax (µg/mL)
Give bare numbers, in µg/mL.

Measured Cmax, Cc1cccc(-c2cncc(Nc3ccc(Br)c(Cl)c3Cl)n2)c1C : 1.03

---

Assay: Cell viability (Presto Blue), A875 shp75
Type: cell-based, human
Details: human, A875 shp75 cells, Div17E5 0.5 uM; 2 days; read-out: Cell Viability, n1-n3
Measurement Kind: viability at 2 days, 0.5 uM (%)
Numbers only, in %.

Measured viability at 2 days, 0.5 uM, Oc1ccc(-c2cncc(Nc3ccc(Br)c(Cl)c3)n2)cc1 : 101

---

Assay: Plasma pharmacokinetics in mice
Type: in vivo, C57BL/6 mice
Conditions: C57BL/6, mouse; IV 3 mg/kg; male; plasma; read-out: T1/2 (converted)
Measurement Kind: half-life (h)
Numbers only, in h.

Measured half-life, Cc1cccc(-c2cncc(Nc3ccc(Br)c(Cl)c3Cl)n2)c1C : 7.45

---

Experiment: Cell viability (Presto Blue), A875 NT
Format: cell-based, human
Details: human, A875 NT cells, Div17E5 0.5 uM; 2 days; N=3
Measurement Kind: viability at 2 days, 0.5 uM (%)
Give bare numbers, in %.

Measured viability at 2 days, 0.5 uM, Oc1ccc(-c2cncc(Nc3ccc(Br)c(Cl)c3)n2)cc1 [Div17E5] : 79
